# Study Target: Neutrophil cytosol factor 1 (Homo sapiens, UniProt P14598)
# Sequence (P14598 whole entry, the tested form may be a part): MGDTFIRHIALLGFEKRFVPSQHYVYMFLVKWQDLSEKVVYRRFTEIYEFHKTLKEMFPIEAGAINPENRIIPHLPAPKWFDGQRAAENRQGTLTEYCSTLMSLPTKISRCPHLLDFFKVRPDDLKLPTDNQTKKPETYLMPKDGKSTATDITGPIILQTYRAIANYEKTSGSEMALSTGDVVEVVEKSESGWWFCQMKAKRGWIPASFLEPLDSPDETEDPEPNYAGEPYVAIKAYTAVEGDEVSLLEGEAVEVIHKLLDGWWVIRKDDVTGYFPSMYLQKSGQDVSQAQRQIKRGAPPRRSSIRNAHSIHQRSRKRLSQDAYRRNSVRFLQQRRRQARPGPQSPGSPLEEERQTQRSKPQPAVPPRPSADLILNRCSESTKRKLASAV
# Assay Comment: Covalent inhibition of recombinant human His-tagged p47phox SH3A-B domain (151 to 285 residues) expressed in Escherichia coli BL21 (DE3) cells interaction with Cy5-p22phox149-162 incubated for 2 hrs by fluorescence polarization competition assay
Property: Ki (µM)
Give just the number in µM; leave the unit off.

// query # get_value(readout='Ki', item= O=c1c2ccccc2[se]n1-c1ccccc1 )
// result 12

====

# Study Target: Neutrophil cytosol factor 1 (Homo sapiens)
# Assay Comment: Covalent inhibition of recombinant human His-tagged p47phox SH3A-B domain (151 to 285 residues) expressed in Escherichia coli BL21 (DE3) cells interaction with Cy5-p22phox149-162 incubated for 10 mins by fluorescence polarization competition assay
# Condition: read-out: Ki
Property: Ki

Some entries whose results are on file:
> print(dat)
                               molecule  reported.measurement
1                   COCCNc1ccc2ccccc2n1                > 2 mM
2          Cc1cc(N2CCN(C)CC2)c2ccccc2n1                > 2 mM
3       Nc1ccc2cc(OCc3ccc(Cl)cc3)ccc2n1                > 2 mM
4             Cc1cc(N2CCNCC2)nc2ccccc12               1.07 mM
5  c1ccc2nc(N3CCNCC3)ccc2c1 [QUIPAZINE]               1.41 mM
6    Nc1cccc2cccnc12 [8-AMINOQUINOLINE]                > 2 mM
7                       Nc1cccc2ncccc12                > 2 mM
8                   Nc1cc(Cl)c2ccccc2n1                > 2 mM

// query # get_value(readout='Ki', item= Nc1ccc2cc(OCC3CCCCC3)ccc2n1 )
// result > 2 mM

// query # get_value(readout='Ki', item= c1ccc2ncccc2c1 [QUINOLINE] )
// result > 2 mM

// query # get_value(readout='Ki', item= Nc1ccccn1 [2-AMINOPYRIDINE] )
// result > 2 mM

// query # get_value(readout='Ki', item= Nc1ccnc2ccccc12 [QUINOLIN-4-AMINE] )
// result 1.52 mM

// query # get_value(readout='Ki', item= Cc1cc(N)c2ccccc2n1 )
// result 1.07 mM

// query # get_value(readout='Ki', item= OCCOCCNc1ccc2ccccc2n1 )
// result > 2 mM

// query # get_value(readout='Ki', item= O=c1c2ccccc2[se]n1-c1ccccc1 [EBSELEN] )
// result 0.063 mM

====

# Study Target: Neutrophil cytosol factor 1 (Homo sapiens, UniProt P14598)
# Assay Comment: Covalent inhibition of recombinant human His-tagged p47phox SH3A-B domain (151 to 285 residues) expressed in Escherichia coli BL21 (DE3) cells interaction with Cy5-p22phox149-162 incubated for 10 mins by fluorescence polarization competition assay
# Condition: read-out: Ki
Property: Ki

> print(dat)
   structure.as.smiles                              study.target  property  reported.measurement
1      Nc1ccc2ccccc2c1  Neutrophil cytosol factor 1 (Homo sapiens, UniProt P14598)        Ki             > 2000 µM
2     NCc1ccc2ccccc2n1  Neutrophil cytosol factor 1 (Homo sapiens, UniProt P14598)        Ki             > 2000 µM

From here, focus on the item given below.
// query # get_value(readout='Ki', item= Nc1ccc2cc(COc3ccc(Cl)cc3)ccc2n1 )
// result > 2000 µM

====

# Study Target: Neutrophil cytosol factor 1 (Homo sapiens, UniProt P14598)
# Assay Comment: Covalent inhibition of recombinant human His-tagged p47phox SH3A-B domain (151 to 285 residues) expressed in Escherichia coli BL21 (DE3) cells interaction with Cy5-p22phox149-162 incubated for 10 mins in presence of TCEP by fluorescence polarization competition assay
Property: Ki

// query // lookup Ki | system=Neutrophil cytosol factor 1 (Homo sapiens, UniProt P14598) | key= O=c1c2ccccc2[se]n1-c1ccccc1
// result > 300 µM

====

# Study Target: Neutrophil cytosol factor 1 (Homo sapiens, UniProt P14598)
# Assay Comment: Binding affinity to immobilized recombinant human His-tagged p47phox SH3A-B domain (151 to 285 residues) expressed in Escherichia coli BL21 (DE3) cells assessed as dissociation constant by SPR assay
// reported Kd per item
Give just the number in µM; leave the unit off.

> print(dat)
         structure.as.smiles                              study.target  property  reported.measurement
1  CN1CCCN(Cc2ccc(CN)cc2)CC1  Neutrophil cytosol factor 1 (Homo sapiens, UniProt P14598)        Kd                   418
2         Cc1cc(N)c2ccccc2n1  Neutrophil cytosol factor 1 (Homo sapiens, UniProt P14598)        Kd                   521
3   c1ccc2c(N3CCNCC3)cccc2c1  Neutrophil cytosol factor 1 (Homo sapiens, UniProt P14598)        Kd                   366
4   c1ccc2nc(N3CCNCC3)ccc2c1  Neutrophil cytosol factor 1 (Homo sapiens, UniProt P14598)        Kd                   420

From here, focus on the item given below.
// query # get_value(readout='Kd', item= Nc1ccnc2ccccc12 )
// result 765

====

# Study Target: Neutrophil cytosol factor 1 (Homo sapiens, UniProt P14598)
# Assay Comment: Covalent inhibition of recombinant human His-tagged p47phox SH3A-B domain (151 to 285 residues) expressed in Escherichia coli BL21 (DE3) cells interaction with Cy5-p22phox149-162 incubated for 10 mins by fluorescence polarization competition assay
# Condition: read-out: Ki
pKi: −log10 of the molar value.
// reported pKi per item

Some entries whose results are on file:
> print(dat)
                        structure.as.smiles                              study.target  property  reported.measurement
1                     CC(=O)Nc1ccc2ccccc2n1  Neutrophil cytosol factor 1 (Homo sapiens, UniProt P14598)       pKi                < 2.70
2  Cc1cc(N2CCN(C(=O)OC(C)(C)C)CC2)c2ccccc2n1  Neutrophil cytosol factor 1 (Homo sapiens, UniProt P14598)       pKi                < 2.70
3                           Oc1ccc2ccccc2n1  Neutrophil cytosol factor 1 (Homo sapiens, UniProt P14598)       pKi                < 2.70
4                           Cc1ccc2ccccc2n1  Neutrophil cytosol factor 1 (Homo sapiens, UniProt P14598)       pKi                < 2.70

// query # get_value(readout='pKi', item= c1cc(N2CCNCC2)ccn1 )
// result 3.52

====

// reported pKi per item
# Study Target: Neutrophil cytosol factor 1 (Homo sapiens)
# Assay Comment: Covalent inhibition of recombinant human His-tagged p47phox SH3A-B domain (151 to 285 residues) expressed in Escherichia coli BL21 (DE3) cells interaction with Cy5-p22phox149-162 incubated for 10 mins by fluorescence polarization competition assay
# Condition: read-out: Ki
pKi: −log10 of the molar value.

> print(dat)
   structure.as.smiles  reported.measurement
1   Nc1ccc2cccc(O)c2n1                  2.86
2      Nc1cnc2ccccc2c1                < 2.70

// query # get_value(readout='pKi', item= Nc1cc(O)c2ccccc2n1 )
// result < 2.70

// query # get_value(readout='pKi', item= Nc1ccc2ncccc2c1 )
// result < 2.70

// query # get_value(readout='pKi', item= c1ccc2c(N3CCNCC3)cccc2c1 )
// result 2.82

// query # get_value(readout='pKi', item= Nc1ccc2cc(OCCOCCOCCOCCOc3ccc4nc(N)ccc4c3)ccc2n1 )
// result 4.49

The measured values listed here are drawn from ChEMBL document CHEMBL4376880.
